system: NCI-H226 lung; assay: NCI tumour cell line growth inhibition, 48 h
observable: TGI (µM)
Kindly answer with a numeric value in µM, unit omitted.

INSERT INTO results (chemical_structure, unit_of_measurement, readout_value) VALUES
  ('O=C1C(NCCF)=C(Cl)C(=O)c2ncccc21', 'µM', 3.66),
  ('COc1cccc(/C(COc2ccc3c(c2)oc(=O)c2ccccc23)=N\O)c1', 'µM', 62);

Using the record for O=C(NCCCN1CCC(N2CCCCC2)CC1)C1=Cc2cc(Br)ccc2OC1 , state its measured TGI.
34.5

Quick one: give measured TGI for COc1ccc(C2=C(Cl)C(=O)N(c3ccc(OC)cc3OC)C(=O)C2(Cl)Cl)cc1
27.1

---

system: RXF 393 renal; assay: NCI tumour cell line growth inhibition, 48 h
Here, each record is paired with measured GI50 data.

The cases that follow already have their GI50 on record.
INSERT INTO measurements (compound, observable, readout_value) VALUES
  ('C=CCNCCN1C(=O)c2ccc3c4c(ccc(c24)C1=O)C(=O)N(CCNCC=C)C3=O', 'GI50', '0.696 µM'),
  ('COc1cc(-c2cc(/C=C3\C(=O)Nc4cc(Cl)ccc43)[nH]n2)cc(OC)c1OC', 'GI50', '5.66 µM'),
  ('CS(=O)(=O)CCN(CC#N)Cc1ccc(-c2ccc3ncnc(Nc4ccc(OCc5cccc(F)c5)c(Cl)c4)c3c2)o1', 'GI50', '10.8 µM');

Give reported GI50 for O=c1oc2ccc(Br)cc2c(=O)n1-c1ccc(Br)cc1F (RXF 393 renal)
0.68 µM

Enter measured GI50, system RXF 393 renal, for the compound shown: CCN(CC)c1ccc(/C=N/NC(=O)c2ccc(S(C)(=O)=O)cc2)c(O)c1
0.452 µM

Write down the reported GI50 (system: RXF 393 renal) of COc1cc2c(/C=C3\C(=O)N(C)c4ccc(O)cc43)c[nH]c2cc1C
4.89 µM

For RXF 393 renal, give the measured GI50 of the entry [C-]#[O+].[C-]#[O+].[C-]#[O+].[C-]#[O+].[O-]C(c1ccccc1[PH+]1OC(C(F)(F)F)(C(F)(F)F)c2ccccc21)(C(F)(F)F)C(F)(F)F.[Re] (stereo not drawn)
1.9 µM

Tell me GI50 of Clc1nc(Cl)c2ncn(C/C=C\COc3cccc(OC/C=C\Cn4cnc5c(Cl)nc(Cl)nc54)c3)c2n1 when tested on RXF 393 renal.
48.8 µM

---

test system: CAKI-1 renal; experiment: NCI tumour cell line growth inhibition, 48 h
We begin with a simple list: items and their reported TGI.

Some compounds with recorded TGI:
INSERT INTO results (compound, readout_value) VALUES
  ('OC/C=C/[C@H](OCc1ccccc1)[C@H](/C=C/CO)OCc1ccccc1', '> 100 µM'),
  ('CC(=O)OCC1OC(n2c3c(cc(C#N)c2=O)CCCCCC3)C(OC(C)=O)C(OC(C)=O)C1OC(C)=O (stereo not drawn)', '> 100 µM'),
  ('COc1ccc(C2C(C#N)=C(O)NC(O)=C2C#N)cc1OC', '> 100 µM'),
  ('COc1ccc(C2SCc3nc4ccccc4n32)cc1 (stereo not drawn)', '> 100 µM'),
  ('CC(C)C(N=c1c2ccccc2n(O)c2ccccc12)C(=O)O (stereo not drawn)', '> 100 µM'),
  ('COC(=O)C1(C(=O)OC)CC(=O)c2c(OC(=O)c3cccc(OC)c3C#N)ccc(OC(=O)c3cccc(OC)c3C#N)c2C1', '> 100 µM');

Hello, please tell me recorded TGI for this one: COc1ccc(-c2nc(N)n(C)c2SSc2c(-c3ccc(OC)cc3)nc(N)n2C)cc1
24.6 µM

Dear colleague, please send me the reported TGI for CC1CC(NN)=Nc2ccccc2N1 (stereo not drawn) when you can.
> 100 µM

Look up and report measured TGI for this entry: CN1CCN(CC(=O)N2CCCn3c2nc2ccccc2c3=O)CC1
> 100 µM

Query TGI for C=CCN1C(N)=C(C#N)C(C#N)(C#N)C1CCC (stereo not drawn)
> 100 µM

Supply TGI value. Item: CCN1C(C)(C)CC(Oc2ccc(C(=O)Nc3ccc(NC(=O)Nc4cc(C(C)(C)C)on4)cc3)nc2)CC1(C)C
5.35 µM

Name the recorded TGI of the item O=C(OCc1nc2nc(Cl)nc(N3CCOCC3)c2[nH]1)n1ccnc1 in your answer.
2.84 µM

Please give the documented TGI of C=CCNCCN1C(=O)c2ccc3c4c(ccc(c24)C1=O)C(=O)N(CCNCC=C)C3=O
1.84 µM

Please indicate TGI recorded for O=C1Nc2ccccc2/C1=C\c1c[nH]c2ccc(Br)cc12
13.6 µM

---

tested on: HOP-92 NSCLC; experiment: NCI tumour cell line growth inhibition, 48 h
observable: TGI

Below: 5 molecules and their reported TGI.
INSERT INTO measurements (molecule, observable, readout_value) VALUES
  ('C[C@H]1CCC/C=C/[C@@H]2C[C@H](O)C[C@H]2[C@H](O)[C@@H](S(=O)C[C@@H](N)C(=O)O)CC(=O)O1 (stereo partly specified)', 'TGI', '1.65 µM'),
  ('CN=c1ss/c(=N\C(=S)N(C)C)n1-c1ccccc1', 'TGI', '> 100 µM'),
  ('CC(C)(C)OC(=O)N1CC(O)O[C@H](c2ccccc2)[C@@H]1c1ccccc1 (stereo partly specified)', 'TGI', '36.1 µM'),
  ('O=C1C(Br)=CC2C1C1C3CCC3C2(Br)C12OCCO2 (stereo unspecified)', 'TGI', '21.8 µM'),
  ('Nc1nc(Cl)nc(NCc2ccccc2)n1', 'TGI', '> 100 µM');

Give the measured TGI for C=CCCCCCCCC(O)C1C[C@H](O)C(CCCCC)O1 (stereo partly specified)
30.7 µM

// fetch TGI given entry COc1cccc(/C=C(\NC(C)=O)c2nc3ccc(Cl)cc3[nH]2)c1
> 100 µM

---

tested on: HS 578T breast; experiment: NCI tumour cell line growth inhibition, 48 h
TGI overview
Form entry: value (µM) — number only.

Worked cases, TGI given:
INSERT INTO measurements (compound, unit_of_measurement, readout_value) VALUES
  ('CC(=O)OCc1cnc2c3c(nc4ccccc4c13)C(=O)c1cccnc1-2', 'µM', 1.33),
  ('CSc1nc(N)cc(Oc2ccc(-c3nc(Nc4cccc(C(F)(F)F)c4)n[nH]3)cc2)n1', 'µM', 9.29),
  ('O=C1NC(=NCc2ccccc2Br)S/C1=C\c1ccc2ncccc2c1', 'µM', 24.4),
  ('COc1ccc2oc(=N)c(C(N)=O)cc2c1', 'µM', 61.7);

# evaluate next
Supply TGI value. Item: NC(=O)C(N)CC12CC3CC(CC(C3)C1)C2 (stereo unspecified)
42.6

---

tested on: SNB-78 CNS; test: NCI tumour cell line growth inhibition, 48 h
observable: TGI

INSERT INTO assay_data (molecule, test_system, observable, readout_value) VALUES
  ('CCOC(=O)Cn1c(=O)[nH]c(=O)c2c1ncn2Cc1ccccc1', 'SNB-78 CNS', 'TGI', '> 100 µM');

Report TGI, nothing else, for this molecule: c1ccc(-c2[o+]c(-c3ccccc3)c(-c3ccccc3)c(-c3ccccc3)c2-c2ccccc2)cc1
> 100 µM

Look up TGI of Cc1cc(C)nc(NS(=O)(=O)c2ccc(NC(=O)c3cccc4c(Nc5ccc(S(=O)(=O)Nc6nc(C)cc(C)n6)cc5)c5ccc(Cl)cc5nc34)cc2)n1 and report it.
> 100 µM

Please give measured TGI of the following entry: CC(C)C(N=c1c2ccccc2n(O)c2ccccc12)C(=O)O (stereo not given)
> 100 µM

Identify the reported TGI for the following entry. O=C1Nc2ccccc2C12CCCC2
> 100 µM

---

tested on: M14 melanoma; test: NCI tumour cell line growth inhibition, 48 h
observable: TGI

INSERT INTO results (compound, test_system, readout_value) VALUES
  ('Clc1nc(Cl)c2ncn(C/C=C\COc3cccc(OC/C=C\Cn4cnc5c(Cl)nc(Cl)nc54)c3)c2n1', 'M14 melanoma', '> 100 µM'),
  ('CN(C)CCn1cnc2sc3ccccc3c21', 'M14 melanoma', '> 100 µM'),
  ('CC(c1ccccc1)N1O[C@]12CC[C@@]1(C)C(CCCC13OCCO3)C2 (stereo not given in full)', 'M14 melanoma', '32.1 µM'),
  ('Cc1cc2nc(N3C(=O)/C(=C/c4ccc(Oc5ccccc5)cc4)N=C3c3ccccc3)sc2cc1C', 'M14 melanoma', '> 100 µM');

Please turn your attention to the following entry.
Supply TGI value. Item: Cn1cc(-c2nonc2-c2cn(C)c3ccc(F)cc23)c2ccccc21
> 100 µM

---

tested on: OVCAR-4 ovarian; test: NCI tumour cell line growth inhibition, 48 h
Recorded TGI, one value per entry.

Some molecules with known TGI results, for comparison:
INSERT INTO assay_data (molecule, test_system, readout_value) VALUES
  ('CC(C)C1(Cl)CCC2C3(C)CCCC(C)(C(=O)O)C3CC(Cl)C2(Cl)C1Cl (stereo unspecified)', 'OVCAR-4 ovarian', '84 µM'),
  ('Cc1cc(C)nc(NS(=O)(=O)c2ccc(NC(=O)c3cccc4c(Nc5ccc(S(=O)(=O)Nc6nc(C)cc(C)n6)cc5)c5ccc(Cl)cc5nc34)cc2)n1', 'OVCAR-4 ovarian', '> 100 µM'),
  ('N#Cc1c2c(c(Nc3ccc(F)cc3)n3c1nc1ccccc13)CCCC2', 'OVCAR-4 ovarian', '> 100 µM'),
  ('COc1ccc(-c2c(C#N)c(=O)nc(SC)n2C2OCC(OC(C)=O)C(OC(C)=O)C2OC(C)=O)cc1 (stereo unspecified)', 'OVCAR-4 ovarian', '> 100 µM'),
  ('O=[As]O', 'OVCAR-4 ovarian', '> 100 µM');

Fill in reported TGI for this entry: Clc1ccc(Nc2nnc(CNc3ccccc3)c3ccccc23)cc1
> 25 µM

Please list TGI recorded for the molecule Clc1ccc(CNc2ccc3nc(CCC4CCCCC4)[nH]c3c2)cc1
90.7 µM

Supply TGI value. Item: CCOP(=O)(OCC)C1CC(C)OC1=O (stereo unspecified)
> 100 µM

Give the measured TGI for COc1ccc(C(=O)NCCC2=CCCCC2)cc1
> 100 µM

Let me know recorded TGI for Clc1ccc2c(NCCNC3CCCCC3)ccnc2c1 , thanks.
46.5 µM

# return recorded TGI for entry CC(=O)OCc1cnc2c3c(nc4ccccc4c13)C(=O)c1cccnc1-2
0.39 µM
